Tested on: A3G-Luc/Vif
assay_text: A3G-Luc/Vif luciferase screen in 293T cells stably co-expressing A3G-Luc and HIV-1 Vif
Format: cell-based, human
applied_conditions: 10 μM, 48 hrs, DMSO = 100%
Experimental: FIG. 6. 293T cell clone #6 stably co-expressing A3G-Luciferase fusion protein together with HIV-1 Vif was used. […] To screen compounds that can boost A3G levels, 293T cells (25,000 cells per well in 96-well plate) stably expressing A3G-Luc protein or A3G-Luc/Vif proteins were plated. […] Following 5 min. of incubation at room temperature, 75 μl of each cell lysate was transferred to a 96-well OptiPlate 96 (PerkinElmer) and luminescence was measured in a VICTOR X2 Multilabel Reader (PerkinElmer). […]
measured_property: Vif-A3G-Luc Activity (% of RLUs compared to DMSO treated control)

Enquiry: Give Vif-A3G-Luc Activity (% of RLUs compared to DMSO treated control); test system A3G-Luc/Vif; compound COc1ccc(C(=O)Nc2ccc(Cl)c(Cl)c2)cc1NS(C)(=O)=O [NU-467]
Return: 146%

Enquiry: Enter measured Vif-A3G-Luc Activity (% of RLUs compared to DMSO treated control), system A3G-Luc/Vif, for the compound shown: COc1ccc(C(=O)Nc2ccc(Cl)c(Cl)c2)cc1NS(=O)(=O)C1CC1 [NU-469]
Return: 82%

Enquiry: Give measured Vif-A3G-Luc Activity (% of RLUs compared to DMSO treated control) for COc1ccc(C(=O)Nc2ccc(Cl)c(Cl)c2)cc1NC(=O)N1CCCCC1 [NU-473] (A3G-Luc/Vif).
Return: 84%

----------
Answer each item with its documented activity at 10 µM.
Tested on: Wild-type HIV-1
assay_text: A3F-mediated restriction of wild-type HIV-1; virus from 293T stably expressing A3F, TZM-bl readout
Format: cell-based
applied_conditions: Human immunodeficiency virus 1, HEK-293T, read-out: A3F-mediated Restriction by Compounds on Wild-type HIV-1 (% of HIV replication relative to DMSO treated Control)
Field: numeric (%). Do not append units.

Enquiry: Tell us which activity at 10 µM value is on record for COc1ccc(C(=O)Nc2ccc(Cl)c(Cl)c2)cc1NC(=O)C1CCCO1 (stereo not drawn)
Return: 77

Enquiry: Please indicate activity at 10 µM recorded for COc1ccc(C(=O)Nc2ccc(Cl)c(Cl)c2)cc1NC(=O)CN(C)C
Return: 65

Enquiry: Item COc1ccc(C(=O)Nc2ccc(Cl)c(Cl)c2)cc1NS(=O)(=O)C(C)C : provide activity at 10 µM
Return: 48

Enquiry: Given COc1ccc(C(=O)Nc2ccc(Cl)c(Cl)c2)cc1NC(=O)C1CC1C (stereo not drawn) , respond with its activity at 10 µM.
Return: 53

Enquiry: Dear colleague, please send me the reported activity at 10 µM for COc1ccc(C(=O)Nc2ccc(Cl)c(Cl)c2)cc1NC(=O)N(C)C when you can.
Return: 49

Enquiry: For the compound COc1ccc(C(=O)Nc2ccc(Cl)c(Cl)c2)cc1NC(=O)C(C)(C)C , give its measured activity at 10 µM value.
Return: 45

----------
System: Wild-type HIV-1
assay_text: A3F-mediated restriction of wild-type HIV-1; virus from 293T stably expressing A3F, TZM-bl readout
Assay type: cell-based
applied_conditions: Human immunodeficiency virus 1, HEK-293T, read-out: A3F-mediated Restriction by Compounds on Wild-type HIV-1 (% of HIV replication relative to DMSO treated Control)
# activity at 10 µM >= 70% gives Condition met, anything below gives Condition not met

Enquiry: Hi team, for CCOc1ccc(C(=O)Nc2ccc(Cl)c(Cl)c2)cc1NC(=O)CC1CC1 , is the recorded activity at 10 µM at or above 70%?
Return: Condition met

Enquiry: Threshold query (activity at 10 µM >= 70%) on COc1ccc(C(=O)Nc2ccc(Cl)c(Cl)c2)cc1NC(=O)C(C)C
Return: Condition not met

Enquiry: Kindly determine if activity at 10 µM recorded for CCOc1ccc(C(=O)Nc2ccc(Cl)c(Cl)c2)cc1NC(=O)C1CCC1 is above or exactly 70%.
Return: Condition met

Enquiry: In plain terms: is recorded activity at 10 µM at least 70% for COCC(=O)Nc1cc(C(=O)Nc2ccc(Cl)c(Cl)c2)ccc1OC ?
Return: Condition not met

Enquiry: Decide: is the reported value of activity at 10 µM for COC(=O)Nc1cc(C(=O)Nc2ccc(Cl)c(Cl)c2)ccc1OC equal to or greater than 70%?
Return: Condition not met

Enquiry: Entry COCCC(=O)Nc1cc(C(=O)Nc2ccc(Cl)c(Cl)c2)ccc1OC : is its activity at 10 µM no less than 70%?
Return: Condition not met

Enquiry: Could you tell me if the measured activity at 10 µM of COc1ccc(C(=O)Nc2ccc(Cl)c(Cl)c2)cc1NC(=O)CC1CC1 reaches 70% or more?
Return: Condition not met

Enquiry: Answer whether activity at 10 µM of COc1ccc(C(=O)Nc2ccc(Cl)c(Cl)c2)cc1NC(=O)C1CCC1 is greater than or equal to 70%.
Return: Condition not met

Enquiry: Reported activity at 10 µM at or above 70%? COc1ccc(C(=O)Nc2ccc(Cl)c(Cl)c2)cc1NS(C)(=O)=O
Return: Condition not met
